target.of.assay: Renin (Homo sapiens)
Sequence (whole entry): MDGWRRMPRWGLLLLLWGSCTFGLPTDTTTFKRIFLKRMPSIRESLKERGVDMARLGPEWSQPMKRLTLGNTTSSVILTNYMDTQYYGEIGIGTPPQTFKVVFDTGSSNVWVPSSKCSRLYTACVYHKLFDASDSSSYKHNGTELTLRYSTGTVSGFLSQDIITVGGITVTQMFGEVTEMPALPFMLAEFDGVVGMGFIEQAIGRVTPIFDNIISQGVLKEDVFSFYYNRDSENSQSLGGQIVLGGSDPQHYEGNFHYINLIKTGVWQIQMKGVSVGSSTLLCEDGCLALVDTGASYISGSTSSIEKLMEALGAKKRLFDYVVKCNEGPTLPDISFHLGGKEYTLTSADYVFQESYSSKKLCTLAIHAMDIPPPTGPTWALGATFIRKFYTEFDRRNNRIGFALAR
experiment.notes: Tested for inhibition against human renin at a concentration of 100 uM
Listing of recorded inhibition by entry.
Provide only the numeric value, understood in %.

GET /values?readout=inhibition&item= COC(=O)[C@@H](NC(=O)C(Cc1c[nH]c2ccccc12)NC(=O)[C@H](CCCCN)N1C(=O)CC[C@@H](NC(=O)OCc2ccccc2)C(=O)N[C@H](Cc2ccccc2)C1=O)C1CCCCC1 (stereo in doubt)
67

GET /values?readout=inhibition&item= COC(=O)[C@H](CC(C)C)NC(=O)C(Cc1c[nH]c2ccccc12)NC(=O)[C@H](CCCN)N1C(=O)CC[C@H](NC(=O)OCc2ccccc2)C(=O)N[C@@H](Cc2ccccc2)C1=O (stereo in doubt)
42

* * *

The following molecules have recorded IC50 on Renin (Homo sapiens, UniProt P00797).
Provide only the numeric value, understood in nM.

- molecule: "CC(C)CCNC(=O)C(Cc1c[nH]c2ccccc12)NC(=O)[C@H](CCCCN)N1C(=O)CC[C@@H](NC(=O)OC(C)(C)C)C(=O)N[C@H](Cc2ccccc2)C1=O (stereo in doubt)"
  readout.unit: "nM"
  IC50: 210
- molecule: "CC(C)CCNC(=O)C(Cc1c[nH]c2ccccc12)NC(=O)[C@H](CCCCN)N1C(=O)CC[C@@H](NC(=O)COc2ccccc2)C(=O)N[C@H](Cc2ccccc2)C1=O (stereo in doubt)"
  readout.unit: "nM"
  IC50: 430
- molecule: "COC(=O)[C@@H](CCSC)NC(=O)[C@H](CC(C)C)NC(=O)C(Cc1c[nH]c2ccccc12)NC(=O)[C@H](CCCCN)N1C(=O)CC[C@@H](NC(=O)OCc2ccccc2)C(=O)N[C@H](Cc2ccccc2)C1=O (stereo in doubt)"
  readout.unit: "nM"
  IC50: 290
- molecule: "CC(C)CCNC(=O)C(Cc1c[nH]c2ccccc12)NC(=O)[C@H](CCCCN)N1C(=O)CC[C@@H](NCC(C)(C)C)C(=O)N[C@H](Cc2ccccc2)C1=O (stereo in doubt)"
  readout.unit: "nM"
  IC50: 63

Proceed to the following item.
Write down the reported IC50 of CC[C@@H](C)[C@H](NC(=O)C(Cc1c[nH]c2ccccc12)NC(=O)[C@H](CCCCN)N1C(=O)CC[C@@H](NC(=O)OCc2ccccc2)C(=O)N[C@H](Cc2ccccc2)C1=O)C(=O)NC (stereo in doubt) , test system: Renin (Homo sapiens, UniProt P00797).
810

* * *

target.of.assay: Renin (Homo sapiens)
experiment.notes: Ratio of inhibitory activity of porcine renin to that of human renin
assay.context: Sus scrofa
endpoint.name: Ratio
Answer using only a numeral; do not append any unit.

Here's what some known entries look like.
- molecule: "CC(C)CCNC(=O)C(Cc1c[nH]c2ccccc12)NC(=O)[C@H](CCCCN)N1C(=O)CC[C@@H](NC(=O)COc2ccccc2)C(=O)N[C@H](Cc2ccccc2)C1=O (stereo in doubt)"
  Ratio: 19.2
- molecule: "CC(C)CCNC(=O)C(Cc1c[nH]c2ccccc12)NC(=O)[C@H](CCCCN)N1C(=O)CC[C@@H](NC(=O)OC(C)(C)C)C(=O)N[C@H](Cc2ccccc2)C1=O (stereo in doubt)"
  Ratio: 40.4
- molecule: "CC(C)CCNC(=O)C(Cc1c[nH]c2ccccc12)NC(=O)[C@H](CCCCN)N1C(=O)CC[C@@H](NCC(C)(C)C)C(=O)N[C@H](Cc2ccccc2)C1=O (stereo in doubt)"
  Ratio: 113

Write down the reported Ratio of CC(C)CCNC(=O)C(Cc1c[nH]c2ccccc12)NC(=O)[C@H](CCCCN)N1C(=O)CC[C@@H](N)C(=O)N[C@H](Cc2ccccc2)C1=O (stereo in doubt) , test system: Renin (Homo sapiens).
64.7

* * *

target.of.assay: Renin (Homo sapiens)
experiment.notes: Tested for inhibition against human renin at a concentration of 100 uM
Kindly return satisfied if reported inhibition is no lower than 60%; return not satisfied if it is lower.

Below, 4 molecules whose answers are already recorded.
- molecule: "CC(=O)NCSC[C@@H]1NC(=O)[C@@H](CC(C)C)NC(=O)C(Cc2c[nH]c3ccccc23)NC(=O)[C@@H](CSCNC(C)=O)NC(=O)[C@H](Cc2ccccc2)NC1=O (stereo in doubt)"
  assigned.class: "not satisfied"
- molecule: "COC(=O)C(Cc1c[nH]c2ccccc12)NC(=O)[C@H](CCCCN)N1C(=O)CC[C@@H](NC(=O)OCc2ccccc2)C(=O)N[C@H](Cc2ccccc2)C1=O (stereo in doubt)"
  assigned.class: "satisfied"
- molecule: "CC(Cc1c[nH]c2ccccc12)NC(=O)[C@H](CCCCN)N1C(=O)CC[C@@H](NC(=O)OC(C)(C)C)C(=O)N[C@H](Cc2ccccc2)C1=O (stereo not given in full)"
  assigned.class: "not satisfied"
- molecule: "CCC(Cc1c[nH]c2ccccc12)NC(=O)[C@H](CCCCN)N1C(=O)CC[C@@H](NC(=O)OC(C)(C)C)C(=O)N[C@H](Cc2ccccc2)C1=O (stereo not given in full)"
  assigned.class: "not satisfied"

Next molecule, please.
Confirm if inhibition reported for the molecule COC(=O)[C@H](CC(C)C)NC(=O)C(Cc1c[nH]c2ccccc12)NC(=O)[C@@H](CCCCN)N1C(=O)C[C@H](NC(=O)OCc2ccccc2)C(=O)N[C@H](Cc2ccccc2)C1=O (stereo in doubt) is 60% or above.
not satisfied
